# Test system: SK-MEL-2 melanoma
# Protocol notes: NCI tumour cell line growth inhibition, 48 h
I'd appreciate it if you could supply TGI values for the items below.
Give bare numbers, in µM.

Solved entries (count: 8):
> print(dat)
                                   molecule  assay.readout  quantity.unit  numeric.result
1  OCCCNCC(O)c1ccc(OCc2ccccc2)c(OCc2ccccc2)c1 (configuration not stated)            TGI             µM            15.1
2  CCC(CC)COC(=O)[C@H](C)N[P@](=O)(OC[C@H]1O[C@@](C#N)(c2ccc3c(N)ncnn23)[C@H](O)[C@@H]1O)Oc1ccccc1            TGI             µM            4.51
3  O=C(NC1CCCCC1)NS(=O)(=O)c1ccc(-n2nc3c(c2-c2cccs2)Cc2ccccc2-3)cc1            TGI             µM            64.7
4     C=C(C)C[C@H](Sc1nc2ccccc2s1)[C@H](C)O            TGI             µM            69.9
5  Cn1c2ccccc2c(=NNc2ccc(S(N)(=O)=O)cc2)c2ccccc21            TGI             µM            34.3
6     Cc1ccc2c(NCCCN(C)C)c3c(C)nn(C)c3nc2c1            TGI             µM            11.1
7  NS(=O)(=O)N(c1cc(C(F)(F)F)cc(C(F)(F)F)c1)C1CCN(Cc2ccc(C(F)(F)F)cc2)CC1            TGI             µM            18.3
8  CCN(CC)CCCN1C(=O)c2c(c(C)c3c(oc4ccc(O)cc43)c2C)C1=O            TGI             µM            35.9

Hi, could you look up TGI for each item in my list?
1. C/C=C(/C(=C/C)c1ccc(O)cc1)c1ccc(O)cc1
2. CC1CN=C(N(C)C(=O)Nc2ccc(Cl)cc2)S1 (configuration not stated)

[30.7, 37.3]

// returns reported TGI for input O=C1c2ccc3c4c(ccc(c24)C(=O)N1CCCNCc1ccccc1F)C(=O)N(CCCNCc1ccccc1F)C3=O
0.366
